Recorded Kd for the following binders
Target: T1, rat CRF receptor, type 1 (rCRFR1) (rat, UniProt P35353 24-415)
T1 construct: whole, on cells; cAMP assays on the whole cells; also called HEK-rCRFR1 cells
T1 sequence (looked up): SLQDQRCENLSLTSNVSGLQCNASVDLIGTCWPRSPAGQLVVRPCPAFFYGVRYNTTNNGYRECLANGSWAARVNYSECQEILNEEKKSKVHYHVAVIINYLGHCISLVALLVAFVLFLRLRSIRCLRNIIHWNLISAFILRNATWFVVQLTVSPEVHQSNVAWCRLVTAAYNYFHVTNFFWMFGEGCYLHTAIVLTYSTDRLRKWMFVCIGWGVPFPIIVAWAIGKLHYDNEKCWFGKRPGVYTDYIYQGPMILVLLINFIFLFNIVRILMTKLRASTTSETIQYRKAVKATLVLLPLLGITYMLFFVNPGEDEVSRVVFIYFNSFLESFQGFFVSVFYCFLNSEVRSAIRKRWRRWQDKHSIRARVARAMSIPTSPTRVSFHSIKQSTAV
Assay: displacement of [125I-Tyr0]oCRF from HEK-rCRFR1 membranes
Non-standard residues stand in square brackets, D forms with d. No end group written: not given here.
Unit nM implied. Number only.

Below are worked cases with known answers.
| Binder | Kd / nM |
| --- | --- |
| [dL]ELLRKMIEIEKQEKEKQQAANNRLLLDTI (not fully specified (C-terminus), also called compound 13) [[DLeu^11]Svg(11-40)] | 1670 |
| LELLRKMIEIEKQEKEKQQAANNRLLLDTI (not fully specified (C-terminus), also called compound 14) [Svg(11-40)] | 831 |

Proceeding to the next binder to report its Kd.
### Prompt Identify Kd associated with the binder [dF]ELLRKMIEIEKQEKEKQQAANNRLLLDTI (not fully specified (C-terminus), also called compound 12) [[DPhe^11]Svg(11-40)]
### Response 237
